meta.source: the RNAGym collection of RNA variant scans (doi:10.1073/pnas.2313332121)

B1: TPR t1 (parent)
chain: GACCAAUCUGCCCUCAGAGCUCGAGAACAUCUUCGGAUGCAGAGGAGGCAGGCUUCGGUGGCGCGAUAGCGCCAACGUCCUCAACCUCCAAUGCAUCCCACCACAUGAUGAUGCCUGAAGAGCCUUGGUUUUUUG

# Variants of: B1
# METHOD SUMMARY: polymerase ribozyme fitness, log enrichment relative to wild type (log ratio); higher = more active; in vitro selection for triplet polymerase activity

# SEQUENCE CHAIN, polymerase ribozyme fitness (log ratio)
measured = [
    ("GACCAAUCUGCCCUCAGAGCUCGAGAACAUCUUCGGAUACAGAGGAGGCAGGCUUCGGUGGCGCGUUAGCGCCAACGUCCUCAACCUCCAAUGCAUCCCACCACAUGAUGAUGCCUGAAGAGUCUUGGUUUUUUG [G39A A66U C123U]", -0.175),
    ("GACCAAUCUGCCCUCAGAGCUCGAGAACAUCUUCGGAUGCAGAGGAGGCAGGCUUCGCUGGCGCGAUAGCGCUAACGUCCUCAACGUCCAAUGCAUCCCACCACAUGAUGAUGCCUGAAGAGCCUUGGUUUUUUG [G58C C73U C86G]", -0.297),
    ("GACCUAUCUACCCUCAGAGCUCGAGAACAUCUUCGGAUGCGGAGGAGGCAGGCUUCGGUGACGCGAUAGCGCCAACGUCCUCAACCUCCAAUGCAUCCCAUCACAUGAUGAUGCCUGAAGAGCCUUGGUUUUGUG [A5U G10A A41G G61A C101U U133G]", -0.742),
    ("GACCAGUCUUCCCUCAGAGCUCGAGAACAUCUUCGGAUGCAGAGGAGGCAGGCUUUGGUGGCGCGAUAGCGCCAACGUCCUCAACCUCCAAUGUAUCCCACCACAUGAUGAUGCCUGAAGAGCCUUGGUUUUUUU [A6G G10U C56U C94U G135U]", -1.99),
    ("GACUAAUCUGCCCUCAGAGCUCGAGAACAUCUUCGGAUGCAGAGGAAGCAGGCUUUGGUGGCGCGAUAGCGCUAACGUCCUCAACCUCCAAUGCAUCCCAUCACAUGAUGAUGCCUGAGUAGCCUUAGUUUUUUG [C4U G47A C56U C73U C101U A119G G120U G127A]", -0.428),
    ("GACCAAUCUGCCCUCAGAGCUCGAGAACAUCUUCGGAUGCAGACGAGGCAGGCUUCGGUGACGCGAUAGCGCCAACGUCCUCAACCUCCAAUGCUUCCCACCACAUGAUAAUGCCUGAAGAGCCUUGGUUUUUUG [G44C G61A A95U G110A]", -1.72),
]
